PROTOCOL TEXT: NCI Yeast Anticancer Drug Screen. Data for the cln2 rad14 strain (AID 165);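 also: 0% = growth equal to vehicle treated cultures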
EXPERIMENTAL CONTEXT: S. cerevisiae cln2 rad14 strain, at 50.0 µM, hits give high values
This is part of a sample that, as a whole, favours compounds with a hit. Of some 79,000 tested, about 15% had one in any assay.
Label rule met for high-side growth inhibition (at or above 20%) and rule not met for low-side growth inhibition (below it).

Check out these entries, answers already filled in.
[[record]]
compound = "Oc1ccc(-c2c3ccccc3c(-c3ccc(OCCBr)cc3)c3ccccc23)cc1"
label_value = "rule not met"

[[record]]
compound = "Cc1ccc(C)[nH]1"
label_value = "rule met"

[[record]]
compound = "CC1=NC(C(=O)O)CC1C (stereo not drawn)"
label_value = "rule not met"

[[record]]
compound = "O=C(OCC(Cl)(Cl)Cl)N1[C@H]2C3=C(CCC3)[C@@H]([C@H]3O[C@H]32)N1C(=O)OCC(Cl)(Cl)Cl"
label_value = "rule met"

[[record]]
compound = "CC1=NN(c2nc(N)nc(CCl)n2)C(C)(C)C1"
label_value = "rule not met"


Is growth inhibition for CC1CCC(NC2=NCCO2)C(C)C1 (stereo not drawn) at or above 20%? rule not met

---

PROTOCOL TEXT: NCI Yeast Anticancer Drug Screen. Data for the rad50 strain (AID 155);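 also: 0% = growth of vehicle-only cultures of the same strain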
EXPERIMENTAL CONTEXT: S. cerevisiae rad50 strain growth inhibition; at 50.0 µM; hits give high values
About 79,000 compounds went through this panel and 15% of them were active in at least one assay; those are over-represented in the sample as a whole.
ASSAY METRIC: growth inhibition (%)
Dear colleague, please return just the value in %, with no unit written.

Use these answered entries as a reference point.
[[record]]
molecule = "[Fe+2].[Fe+2].c1ccc2c(c1)-c1nc-2nc2[n-]c(nc3nc(nc4[n-]c(n1)c1ccccc41)-c1ccccc1-3)c1cc3c4nc5nc(nc6[n-]c(nc7nc(nc([n-]4)c3cc21)-c1ccccc1-7)c1ccccc61)-c1ccccc1-5"
assay_metric = "growth inhibition"
value_units = "%"
reported_value = -5.95

[[record]]
molecule = "CCOc1cn(C2OC(CO)C(O)C2O)c(=O)[nH]c1=O (stereo not drawn)"
assay_metric = "growth inhibition"
value_units = "%"
reported_value = -33.9

[[record]]
molecule = "CCCCCCCC/C=C\\CCCCCCCCOC(=O)CC(O)C(=O)OCCCCCCCC/C=C\\CCCCCCCC (stereo not drawn)"
assay_metric = "growth inhibition"
value_units = "%"
reported_value = -22.6

[[record]]
molecule = "Cc1ccc(Cl)c2c1C(=O)c1ccccc1C2=O"
assay_metric = "growth inhibition"
value_units = "%"
reported_value = 24.2


// returns reported growth inhibition for input CC(C)[C@@H]1CC[C@@H](C)C[C@H]1OC(=O)c1c2n(c3ccccc13)C[C@H]1OC(C)(C)O[C@@H]21 5.15

// returns reported growth inhibition for input Cc1ccc(C(=O)/C=C(\C(=O)c2ccccc2)c2ccccc2)cc1C 12.5

// returns reported growth inhibition for input Nc1ncc(C(=O)O)c(N)n1 15.8

---

Each record here notes measured growth inhibition.
PROTOCOL TEXT: NCI Yeast Anticancer Drug Screen. Data for the rad50 strain (AID 155);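 also: 0% = growth of vehicle-only cultures of the same strain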
EXPERIMENTAL CONTEXT: S. cerevisiae rad50 strain growth inhibition; at 50.0 µM; hits give high values
This is part of a sample that, as a whole, favours compounds with a hit. Of some 79,000 tested, about 15% had one in any assay.
Dear colleague, please return just the value in %, with no unit written.

[[record]]
molecule = "O=C(NNC(=O)c1cccc2ccccc12)c1cccc(Cl)c1"
value_units = "%"
reported_value = 3.5

[[record]]
molecule = "OC1CC2CCCCC2CC1c1ccccc1 (stereo not given)"
value_units = "%"
reported_value = 14.1

[[record]]
molecule = "N#C/C(=C\\c1ccccn1)c1nc(-c2ccc(Cl)cc2)cs1"
value_units = "%"
reported_value = -9.6

[[record]]
molecule = "CC(C)(C)n1c(=O)[nH]c(=O)n1C(C)(C)C"
value_units = "%"
reported_value = 5.75

[[record]]
molecule = "O=C(O)/C=C\\C(=O)Nc1ccc(N=Nc2ccccc2)cc1"
value_units = "%"
reported_value = -34.6

[[record]]
molecule = "CCOC(=O)c1cc(-c2ccc(OC)c(OC)c2)c[nH]1"
value_units = "%"
reported_value = 14.6

[[record]]
molecule = "CCCCN(CCCC)CCCNC(=O)OCC"
value_units = "%"
reported_value = -4.2

[[record]]
molecule = "O=C(Nc1ccccc1)c1cc2cc(N=Nc3ccc(Br)cc3)ccc2oc1=O"
value_units = "%"
reported_value = 4.2


// returns reported growth inhibition for input O=C1CN(N2CCOCC2)CC(=O)N2CCCCN12 20.9

// returns reported growth inhibition for input CN1CCN(Cc2cc(C(C)(C)C)cc(-c3ccccc3)c2O)CC1 39.4

// returns reported growth inhibition for input NC(N)=N/N=C/c1c(Cl)nc2sccn12 -11.4

// returns reported growth inhibition for input CC(C)CCCC(C)C1CCC2C1CCC1C2CCC2(C)CCC(=O)CCC12C (stereo not given) 24.8

// returns reported growth inhibition for input O=C1NC(=O)C(=Cc2cc3c(cc2Br)OCO3)C(=O)N1 32

// returns reported growth inhibition for input CC1=C(C(=O)CC(=O)C(=O)Nc2ccc(C)cc2)Sc2ccccc2N1 -7.35
